List of minimal effective dose values.
System: Candida albicans A-26
Experiment: Therapeutic activity against Candida albicans A-26 infection in X-irradiated mice, lowest active dose
Format: in vivo
Settings: A26, light or radiation study, sc, X-irradiated mice, subcutaneous at 0, 4 and 24 hours post infection, survival, read-out: Lowest Active Dose
Starred links: 1 amine or outer side, 2 acyl side, 3 side chain; linkers in the order of their positions; H or OH if unused. Positions of bridges follow the written chain, without caps; N, C: chain ends. Non-standard residues stand in square brackets, D forms with d. Residues, ends and D or L forms follow the SMILES beside them. *: point of attachment. Orn(4R-OH,5R-OH) = O=C([C@H](C[C@@H](O)[C@@H](O)N[*:3])N[*:1])[*:2]; hTyr(3S-OH,4S-OH) = N[C@H](C(=O)O)[C@H](O)[C@@H](O)c1ccc(O)cc1; Benzoyl(4-dodecyloxy) = CCCCCCCCCCCCOc1ccc(C(=O)*)cc1; Pro(3S-OH,4S-Me) = C[C@H]1CN[C@H](C(=O)O)[C@H]1O; Benzoyl(4-octyloxy) = CCCCCCCCOc1ccc(C(=O)*)cc1; X5 = CCCCCCCCCCCCS(=O)(=O)c1ccc(C(=O)*)cc1; X28 = CCCCCCCC[S+]([O-])c1ccc(C(=O)*)cc1; X3 = CCCCCCCCCCCCCCSc1ccc(C(=O)*)cc1; Hyp = O=C(O)[C@@H]1C[C@@H](O)CN1; X6 = CCCCCCCCCCSc1ccc(C(=O)*)cc1; X9 = CCCCCCCCCCOc1cccc(C(=O)*)c1; X13 = CCCCCCCCOc1cccc(C(=O)*)c1; X14 = CCCCCCOc1ccc(C(=O)*)cc1; X17 = CCCCOc1ccc(CCC(=O)*)cc1
assayReadout: minimal effective dose (mg/kg)

# compound, measuredTarget, assayReadout, comparisonSymbol, dataValue
measured = [
    ("CCCCCCOc1ccc(C(=O)N[C@H]2C[C@@H](O)[C@@H](O)NC(=O)[C@@H]3[C@@H](O)[C@@H](C)CN3C(=O)[C@H]([C@@H](C)O)NC(=O)[C@H]([C@H](O)[C@@H](O)c3ccc(O)cc3)NC(=O)[C@@H]3C[C@@H](O)CN3C(=O)[C@H]([C@@H](C)O)NC2=O)cc1 [drawing 167] (X14-[Orn(4R-OH,5R-OH)]T[Hyp][hTyr(3S-OH,4S-OH)]T[Pro(3S-OH,4S-Me)]; lactam 1-C)", "Candida albicans A-26", "minimal effective dose", "=", 20),
    ("CCCCCCCCCCCCS(=O)(=O)c1ccc(C(=O)N[C@H]2C[C@@H](O)[C@@H](O)NC(=O)[C@@H]3[C@@H](O)[C@@H](C)CN3C(=O)[C@H]([C@@H](C)O)NC(=O)[C@H]([C@H](O)[C@@H](O)c3ccc(O)cc3)NC(=O)[C@@H]3C[C@@H](O)CN3C(=O)[C@H]([C@@H](C)O)NC2=O)cc1 [drawing 161] (X5-[Orn(4R-OH,5R-OH)]T[Hyp][hTyr(3S-OH,4S-OH)]T[Pro(3S-OH,4S-Me)]; lactam 1-C)", "Candida albicans A-26", "minimal effective dose", "=", 20),
    ("CCCCCCCCCCCCCCSc1ccc(C(=O)N[C@H]2C[C@@H](O)[C@@H](O)NC(=O)[C@@H]3[C@@H](O)[C@@H](C)CN3C(=O)[C@H]([C@@H](C)O)NC(=O)[C@H]([C@H](O)[C@@H](O)c3ccc(O)cc3)NC(=O)[C@@H]3C[C@@H](O)CN3C(=O)[C@H]([C@@H](C)O)NC2=O)cc1 [drawing 158] (X3-[Orn(4R-OH,5R-OH)]T[Hyp][hTyr(3S-OH,4S-OH)]T[Pro(3S-OH,4S-Me)]; lactam 1-C)", "Candida albicans A-26", "minimal effective dose", "=", 2.5),
    ("CCCCCCCCOc1cccc(C(=O)N[C@H]2C[C@@H](O)[C@@H](O)NC(=O)[C@@H]3[C@@H](O)[C@@H](C)CN3C(=O)[C@H]([C@@H](C)O)NC(=O)[C@H]([C@H](O)[C@@H](O)c3ccc(O)cc3)NC(=O)[C@@H]3C[C@@H](O)CN3C(=O)[C@H]([C@@H](C)O)NC2=O)c1 [drawing 163] (X13-[Orn(4R-OH,5R-OH)]T[Hyp][hTyr(3S-OH,4S-OH)]T[Pro(3S-OH,4S-Me)]; lactam 1-C)", "Candida albicans A-26", "minimal effective dose", "=", 40),
    ("CCCCOc1ccc(CCC(=O)N[C@H]2C[C@@H](O)[C@@H](O)NC(=O)[C@@H]3[C@@H](O)[C@@H](C)CN3C(=O)[C@H]([C@@H](C)O)NC(=O)[C@H]([C@H](O)[C@@H](O)c3ccc(O)cc3)NC(=O)[C@@H]3C[C@@H](O)CN3C(=O)[C@H]([C@@H](C)O)NC2=O)cc1 [drawing 170] (X17-[Orn(4R-OH,5R-OH)]T[Hyp][hTyr(3S-OH,4S-OH)]T[Pro(3S-OH,4S-Me)]; lactam 1-C)", "Candida albicans A-26", "minimal effective dose", "=", 40),
    ("CCCCCCCCCCCCOc1ccc(C(=O)N[C@H]2C[C@@H](O)[C@@H](O)NC(=O)[C@@H]3[C@@H](O)[C@@H](C)CN3C(=O)[C@H]([C@@H](C)O)NC(=O)[C@H]([C@H](O)[C@@H](O)c3ccc(O)cc3)NC(=O)[C@@H]3C[C@@H](O)CN3C(=O)[C@H]([C@@H](C)O)NC2=O)cc1 [drawing 153] ({Benzoyl(4-dodecyloxy)}-[Orn(4R-OH,5R-OH)]T[Hyp][hTyr(3S-OH,4S-OH)]T[Pro(3S-OH,4S-Me)]; lactam 1-C)", "Candida albicans A-26", "minimal effective dose", "=", 2.5),
    ("CCCCCCCCOc1ccc(C(=O)N[C@H]2C[C@@H](O)[C@@H](O)NC(=O)[C@@H]3[C@@H](O)[C@@H](C)CN3C(=O)[C@H]([C@@H](C)O)NC(=O)[C@H]([C@H](O)[C@@H](O)c3ccc(O)cc3)NC(=O)[C@@H]3C[C@@H](O)CN3C(=O)[C@H]([C@@H](C)O)NC2=O)cc1 [drawing 151] ({Benzoyl(4-octyloxy)}-[Orn(4R-OH,5R-OH)]T[Hyp][hTyr(3S-OH,4S-OH)]T[Pro(3S-OH,4S-Me)]; lactam 1-C)", "Candida albicans A-26", "minimal effective dose", "<", 12.5),
    ("CCCCCCCC[S+]([O-])c1ccc(C(=O)N[C@H]2C[C@@H](O)[C@@H](O)NC(=O)[C@@H]3[C@@H](O)[C@@H](C)CN3C(=O)[C@H]([C@@H](C)O)NC(=O)[C@H]([C@H](O)[C@@H](O)c3ccc(O)cc3)NC(=O)[C@@H]3C[C@@H](O)CN3C(=O)[C@H]([C@@H](C)O)NC2=O)cc1 (stereo partly drawn) (X28-[Orn(4R-OH,5R-OH)]T[Hyp][hTyr(3S-OH,4S-OH)]T[Pro(3S-OH,4S-Me)]; lactam 1-C)", "Candida albicans A-26", "minimal effective dose", ">", 40),
    ("CCCCCCCCCCOc1cccc(C(=O)N[C@H]2C[C@@H](O)[C@@H](O)NC(=O)[C@@H]3[C@@H](O)[C@@H](C)CN3C(=O)[C@H]([C@@H](C)O)NC(=O)[C@H]([C@H](O)[C@@H](O)c3ccc(O)cc3)NC(=O)[C@@H]3C[C@@H](O)CN3C(=O)[C@H]([C@@H](C)O)NC2=O)c1 [drawing 164] (X9-[Orn(4R-OH,5R-OH)]T[Hyp][hTyr(3S-OH,4S-OH)]T[Pro(3S-OH,4S-Me)]; lactam 1-C)", "Candida albicans A-26", "minimal effective dose", ">", 40),
    ("CCCCCCCCCCSc1ccc(C(=O)N[C@H]2C[C@@H](O)[C@@H](O)NC(=O)[C@@H]3[C@@H](O)[C@@H](C)CN3C(=O)[C@H]([C@@H](C)O)NC(=O)[C@H]([C@H](O)[C@@H](O)c3ccc(O)cc3)NC(=O)[C@@H]3C[C@@H](O)CN3C(=O)[C@H]([C@@H](C)O)NC2=O)cc1 [drawing 156] (X6-[Orn(4R-OH,5R-OH)]T[Hyp][hTyr(3S-OH,4S-OH)]T[Pro(3S-OH,4S-Me)]; lactam 1-C)", "Candida albicans A-26", "minimal effective dose", "=", 20),
]
